Origin of the recorded values: PubChem BioAssay (NCI)

Tested on: NCI/ADR-RES ovarian
PROCEDURE_DETAILS: NCI-60 one-dose screen, 48 h (100 = growth as untreated, 0 = no growth, -100 = all killed)
PROTOCOL_CONDITIONS: 10 µM unless noted
Compounds without any hit were thinned out: in the full panel of roughly 83,000, 20% have a hit.
RESULT_TYPE: growth (%)

• CCCCCc1cc[n+](CC(=O)c2ccc([N+](=O)[O-])cc2)cc1 = 110
• COc1ccc2c(c1)[nH]c(=O)c1c3cc(C)c(C)cc3cn21 = 8.27
• COc1cc(C2C3=C(COC3=O)Nc3cc4c(cc32)OCO4)cc2c1OCO2 (stereo not drawn) = 9.84
• O=C(/C=C/c1c[nH]c2ccccc12)c1ccc(O)c(CN2CCN(c3ccc(F)cc3)CC2)c1 = 103
• C=C1CCC2C3(C)COC(C)(C)OC3CCC2(C)C1C/C=C1/C(=O)OCC1Oc1ccccc1OC (stereo not drawn) = 85.6
• CC(C)(C)c1[nH]nc2c1C(c1cc3ccccc3[nH]c1=O)Nc1cc(C(=O)Nc3ccc(Cl)cc3)ccc1N2 (stereo not drawn) = 95.3
• CCOC(=O)/C(C#N)=C1/C(=O)Nc2ccccc21 = 112
• C=C(C)[C@@H]1CC[C@]2(C(=O)O)CC[C@]3(C)[C@H](CC[C@@H]4[C@@]5(C)C[C@@H](CC#Cc6ccc(C(F)(F)F)cc6)[C@H](O)C(C)(C)[C@@H]5CC[C@]43C)[C@@H]12 = 76.1
• Nc1nc(Nc2cc(Cl)cc(Cl)c2)nn1S(=O)(=O)c1ccc2ccccc2c1 = 37.1
• COc1cc(/C=C/C(=O)c2c(C)nc3ccccc3c2C)ccc1OCCCCOc1cc2c(cc1OC)C(=O)N1CCC[C@H]1C=N2 = 43.9
• CCN(CC)CCC(CNc1c2ccc(Cl)cc2nc2ccc(OC)cc12)c1ccccc1 (stereo not drawn) = -1.8
• C=C[C@@H]1C[C@@H]2Cc3c(C)cc(C)cc3N1O2 = 102
• CC(C)(C)OC(=O)NCCc1ccc(N=C=S)cc1 = 75.6
